Assay: Stability in liver microsomes, rat
Listed here are compounds together with their documented Trep Concentration 60 min.

>  <COMPOUND>
CCCCCC(CCC1C(OC(=O)CC)CC2Cc3c(cccc3OCC(=O)O)CC21)OC(=O)CC (centres unmarked) [Prodrug LXX, treprostinil dipropionate]

>  <Trep Concentration 60 min / µM>
0.699

$$$$
>  <COMPOUND>
CCCCCC(CCC1C(O)CC2Cc3c(cccc3OCC(=O)O)CC21)OC(=O)OCC(=O)O (centres unmarked)

>  <Trep Concentration 60 min / µM>
0

$$$$
>  <COMPOUND>
CCCCCC(CCC1C(O)CC2Cc3c(cccc3OCC(=O)O)CC21)OC(=O)c1ccc(C(F)(F)F)cc1 (centres unmarked)

>  <Trep Concentration 60 min / µM>
0.139

$$$$
>  <COMPOUND>
CCCCCC(CCC1C(O)CC2Cc3c(cccc3OCC(=O)O)CC21)OC(=O)C(N)CCCCN (centres unmarked)

>  <Trep Concentration 60 min / µM>
0.079

$$$$
>  <COMPOUND>
CCCCCC(CCC1C(O)CC2Cc3c(cccc3OCC(=O)O)CC21)OC(=O)OC(C)C (centres unmarked)

>  <Trep Concentration 60 min / µM>
0.53

$$$$
>  <COMPOUND>
CCCCCC1CCC2C(CC3Cc4c(cccc4OCC(=O)O)CC32)OP(=O)(Oc2ccccc2)O1 (mixture of isomers)

>  <Trep Concentration 60 min / µM>
0

$$$$
>  <COMPOUND>
CCCCCC(CCC1C(O)CC2Cc3c(cccc3OCC(=O)O)CC21)OC(=O)C(C)C (centres unmarked)

>  <Trep Concentration 60 min / µM>
0.433

$$$$
>  <COMPOUND>
CCCCCC(CCC1C(O)CC2Cc3c(cccc3OCC(=O)O)CC21)OC(=O)CC (centres unmarked)

>  <Trep Concentration 60 min / µM>
0.553

$$$$

====

Experiment: Stability in cryopreserved hepatocytes, dog
Measured Trep Concentration (μM) 0 min values are reported for all entries that follow.
MEASURE_NAME: Trep Concentration (μM) 0 min (µM)

>  <COMPOUND>
CCCCCC(CCC1C(O)CC2Cc3c(cccc3OCC(=O)O)CC21)OCc1oc(=O)oc1C (stereo not drawn) [LI]

>  <OBSERVED_RESULT>
0.0214

$$$$
>  <COMPOUND>
CCCCCC(CCC1C(O)CC2Cc3c(cccc3OCC(=O)O)CC21)OC(=O)NCCO (stereo not drawn) [LIX]

>  <OBSERVED_RESULT>
0

$$$$
>  <COMPOUND>
CCCCCC(CCC1C(O)CC2Cc3c(cccc3OCC(=O)O)CC21)OC(=O)C(C)C (stereo not drawn) [LXVII]

>  <OBSERVED_RESULT>
0.09

$$$$
>  <COMPOUND>
CCCCCC(CCC1C(O)CC2Cc3c(cccc3OCC(=O)O)CC21)OC(=O)C12CC3CC(CC(C3)C1)C2 (stereo not drawn) [LXIX]

>  <OBSERVED_RESULT>
0.00877

$$$$
>  <COMPOUND>
CCCCCC(CCC1C(O)CC2Cc3c(cccc3OCC(=O)O)CC21)OC(=O)CCN (stereo not drawn) [XXXVII]

>  <OBSERVED_RESULT>
0

$$$$
>  <COMPOUND>
CCCCCC(CCC1C(O)CC2Cc3c(cccc3OCC(=O)O)CC21)OC(=O)c1ccc(C(F)(F)F)cc1 (stereo not drawn) [LXII]

>  <OBSERVED_RESULT>
0

$$$$
>  <COMPOUND>
CCCCCC(CCC1C(O)CC2Cc3c(cccc3OCC(=O)O)CC21)OCC(=O)O (stereo not drawn) [LVII]

>  <OBSERVED_RESULT>
0

$$$$
>  <COMPOUND>
CCCCCC(CCC1C(O)CC2Cc3c(cccc3OCC(=O)O)CC21)OCCN1CCOCC1 (stereo not drawn) [L]

>  <OBSERVED_RESULT>
0.00247

$$$$
>  <COMPOUND>
CCCCCC(CCC1C(O)CC2Cc3c(cccc3OCC(=O)O)CC21)OC(N)=O (stereo not drawn) [XLII]

>  <OBSERVED_RESULT>
0.296

$$$$
